target: AgNbp2; experiment: SPOT peptide array binding signal intensity (averaged, normalized) (arbitrary units (background-subtracted, floor 0; scale differs between SH3 domains)); higher = stronger binding of the SH3 domain to the peptide
Listed here: items and their measured SPOT peptide array binding signal intensity.

// known answers, use as guide
RPVPPPPPMRTTTEG :: 3100
GPPPPLPPPLFPSSS :: ≤ 0
QRIRKIPGIPLMSVG :: 486
PSRRDSLSIPRAVDA :: 6

Which SPOT peptide array binding signal intensity is reported for this binder? SGVRLPAPPPPPRRG
1250

Form field: reported SPOT peptide array binding signal intensity of ERPKRRAPPPVPKKP
292
